These data points were gathered from paper PMC8954944.

# Test system: c-myc G-quadruplex DNA (DNA, G4) TGGGGAGGGTGGGGAGGGTGGGGAAGG
# assay-text: fluorescent intercalator displacement
# assay-setup: 100 mM KCl; 10 mM Tris-HCl pH 7.4, room temperature; thiazole orange 1 μM displaced, DNA 0.5 μM
# key: entry, value: DC50
reported-endpoint: DC50 (µM)

INSERT INTO measurements (cpd_smiles, experimental_result) VALUES
  ('Cc1ccc(C(C)C)cc1.Fc1ccc(-c2nc3c4cccnc4c4ncccc4c3[nH]2)c(F)c1.[Cl-].[Ru+2]', 15.6),
  ('Fc1cccc(-c2nc3c4cccnc4c4ncccc4c3[nH]2)c1F.[Cl-].[Ru+2].c1ccccc1', 6.6),
  ('Cc1ccccc1.Fc1ccc(-c2nc3c4cccnc4c4ncccc4c3[nH]2)c(F)c1.[Cl-].[Ru+2]', 10.8),
  ('Cc1ccccc1.Fc1cccc(-c2nc3c4cccnc4c4ncccc4c3[nH]2)c1F.[Cl-].[Ru+2]', 9.93),
  ('Cc1ccc(C(C)C)cc1.Fc1cccc(-c2nc3c4cccnc4c4ncccc4c3[nH]2)c1F.[Cl-].[Ru+2]', 10.26);

###

# Tested on: c-myc G-quadruplex DNA (DNA, G4) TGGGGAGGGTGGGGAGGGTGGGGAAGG
# assay-text: UV-vis titration
# assay-setup: 100 mM KCl; 10 mM Tris-HCl pH 7.4, room temperature; 20 μM complex
reported-endpoint: Kb

INSERT INTO assay_data (cpd_smiles, experimental_result) VALUES
  ('Fc1ccc(-c2nc3c4cccnc4c4ncccc4c3[nH]2)c(F)c1.[Cl-].[Ru+2].c1ccccc1', '~ 48.3 × 10^6 M^-1'),
  ('Cc1ccc(C(C)C)cc1.Fc1ccc(-c2nc3c4cccnc4c4ncccc4c3[nH]2)c(F)c1.[Cl-].[Ru+2]', '~ 14.6 × 10^6 M^-1'),
  ('Fc1cccc(-c2nc3c4cccnc4c4ncccc4c3[nH]2)c1F.[Cl-].[Ru+2].c1ccccc1', '~ 67.5 × 10^6 M^-1'),
  ('Cc1ccc(C(C)C)cc1.Fc1cccc(-c2nc3c4cccnc4c4ncccc4c3[nH]2)c1F.[Cl-].[Ru+2]', '~ 134 × 10^6 M^-1');

###

# Tested on: c-myc G-quadruplex DNA FRET probe (FAM/TAMRA) (DNA, G4) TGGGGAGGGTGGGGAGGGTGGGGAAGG
# assay-text: FRET melting
# assay-setup: 100 mM KCl, 10 mM Na3AsO4; 10 mM Tris-HCl pH 7.4; 0.2 μM DNA; complex 0.15 or 0.30 μM, not given
Everything with ΔTm lower than 5 °C is No; everything else, including exactly 5 °C, is Yes.

INSERT INTO results (cpd_smiles, class_assignment) VALUES
  ('Cc1ccccc1.Fc1cccc(-c2nc3c4cccnc4c4ncccc4c3[nH]2)c1F.[Cl-].[Ru+2]', 'Yes'),
  ('Fc1cccc(-c2nc3c4cccnc4c4ncccc4c3[nH]2)c1F.[Cl-].[Ru+2].c1ccccc1', 'Yes'),
  ('Fc1ccc(-c2nc3c4cccnc4c4ncccc4c3[nH]2)c(F)c1.[Cl-].[Ru+2].c1ccccc1', 'Yes'),
  ('Cc1ccccc1.Fc1ccc(-c2nc3c4cccnc4c4ncccc4c3[nH]2)c(F)c1.[Cl-].[Ru+2]', 'Yes'),
  ('Cc1ccc(C(C)C)cc1.Fc1ccc(-c2nc3c4cccnc4c4ncccc4c3[nH]2)c(F)c1.[Cl-].[Ru+2]', 'No');

###

# System: human glioblastoma U87 cells
# assay-text: MTT assay, U87
# Format: cell-based
# assay-setup: 72 h, 570 nm
pIC50: −log10 of the molar value.
reported-endpoint: pIC50

INSERT INTO measurements (compound, experimental_result) VALUES
  ('N.N.[Cl][Pt][Cl] [Cisplatin, reference compound]', 4.49),
  ('Fc1ccc(-c2nc3c4cccnc4c4ncccc4c3[nH]2)c(F)c1 [L2]', 5.23),
  ('Fc1cccc(-c2nc3c4cccnc4c4ncccc4c3[nH]2)c1F [L1]', 4.84);
